target: UniProtKB Q9UBN7; experiment: Inhibition of HDAC6 in human U937 cells assessed as induction of alpha-tubulin acetylation at 5 uM after 30 hrs by cytofluorimetric analysis; assay type: cell-based; settings: U-937
Sequence (Q9UBN7 whole entry): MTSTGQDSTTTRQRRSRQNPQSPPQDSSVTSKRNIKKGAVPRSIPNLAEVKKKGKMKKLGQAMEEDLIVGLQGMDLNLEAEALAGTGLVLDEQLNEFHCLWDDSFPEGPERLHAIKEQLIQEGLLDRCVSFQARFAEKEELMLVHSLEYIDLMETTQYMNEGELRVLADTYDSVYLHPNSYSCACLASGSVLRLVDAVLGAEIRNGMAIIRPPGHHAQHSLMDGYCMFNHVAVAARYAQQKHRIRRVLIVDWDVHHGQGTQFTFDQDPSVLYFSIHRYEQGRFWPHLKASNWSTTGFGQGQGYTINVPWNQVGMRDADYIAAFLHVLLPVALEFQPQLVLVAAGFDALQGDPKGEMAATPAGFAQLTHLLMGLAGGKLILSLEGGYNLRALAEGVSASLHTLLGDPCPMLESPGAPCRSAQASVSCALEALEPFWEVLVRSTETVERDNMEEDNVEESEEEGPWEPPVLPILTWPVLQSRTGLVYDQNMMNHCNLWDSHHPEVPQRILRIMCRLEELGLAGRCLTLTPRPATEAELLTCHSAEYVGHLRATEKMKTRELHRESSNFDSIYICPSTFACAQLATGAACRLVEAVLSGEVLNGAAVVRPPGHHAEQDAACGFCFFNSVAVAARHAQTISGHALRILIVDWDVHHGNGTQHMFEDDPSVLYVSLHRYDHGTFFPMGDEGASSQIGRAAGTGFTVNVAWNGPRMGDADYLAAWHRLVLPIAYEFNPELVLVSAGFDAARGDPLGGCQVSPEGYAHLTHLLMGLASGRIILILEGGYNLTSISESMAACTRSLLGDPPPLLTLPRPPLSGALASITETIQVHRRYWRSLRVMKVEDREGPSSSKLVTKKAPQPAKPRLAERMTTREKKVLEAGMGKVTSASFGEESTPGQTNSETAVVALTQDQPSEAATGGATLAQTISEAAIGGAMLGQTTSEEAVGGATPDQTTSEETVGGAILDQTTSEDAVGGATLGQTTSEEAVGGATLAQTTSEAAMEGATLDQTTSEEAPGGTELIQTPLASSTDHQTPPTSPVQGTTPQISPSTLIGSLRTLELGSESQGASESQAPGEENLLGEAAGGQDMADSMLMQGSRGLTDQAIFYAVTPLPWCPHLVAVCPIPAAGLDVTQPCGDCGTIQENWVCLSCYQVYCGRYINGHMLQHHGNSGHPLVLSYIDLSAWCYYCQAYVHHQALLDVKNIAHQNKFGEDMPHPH
Activity calls are given as the source filed them. The calls are words filed in the database; no cut-off is given here.
Outcome (select one): active, inactive

**Query** What did this assay record as the result for "O=C(NCCSSCCNC(=O)/C(Cc1c[nH]c2c(Br)cccc12)=N/O)/C(Cc1c[nH]c2c(Br)cccc12)=N/O" ?
**Result** active

**Query** Hey, what did the test say about "O=C(NCCO)/C(Cc1c[nH]c2ccc(Br)cc12)=N/O" ?
**Result** active

**Query** # outcome recorded in this test, key = "CO/N=C(\Cc1c[nH]c2ccc(Br)cc12)C(=O)NCCSSCCNC(=O)/C(Cc1c[nH]c2ccc(Br)cc12)=N/OC"
**Result** active

**Query** Lab log entry: "O=C(NCCCCCSSCCCCCNC(=O)/C(Cc1c[nH]c2ccc(Br)cc12)=N/O)/C(Cc1c[nH]c2ccc(Br)cc12)=N/O" — outcome as called in the assay?
**Result** active

**Query** // return assay outcome for "Cn1cc(CCC(=O)NCCSSCCNC(=O)CCc2cn(C)c3ccc(Br)cc23)c2cc(Br)ccc21"
**Result** active

**Query** # fetch the recorded call for "CSCCNC(=O)/C(Cc1c[nH]c2ccc(Br)cc12)=N/O" here
**Result** active

**Query** // return assay outcome for "COCCNC(=O)/C(Cc1c[nH]c2ccc(Br)cc12)=N/O"
**Result** active

**Query** Each compound tested received a call. Report the one for "O=C(NCCSSCCNC(=O)/C(Cc1c[nH]c2ccc(Cl)cc12)=N/O)/C(Cc1c[nH]c2ccc(Cl)cc12)=N/O" .
**Result** active

**Query** What call does the record list for "O=C(NCCSSCCNC(=O)/C(Cc1c[nH]c2ccc(I)cc12)=N/O)/C(Cc1c[nH]c2ccc(I)cc12)=N/O" ?
**Result** active

**Query** What classification did "O=C(NCCSSCCNC(=O)/C(Cc1c[nH]c2ccccc12)=N/O)/C(Cc1c[nH]c2ccccc12)=N/O" end up with in this test?
**Result** active

**Query** Can you look up the reported call for "O=C(CCc1c[nH]c2ccc(Br)cc12)NCCSSCCNC(=O)CCc1c[nH]c2ccc(Br)cc12" for me?
**Result** active

**Query** Recorded test call requested for "O=C(NCCCCCCCCNC(=O)/C(Cc1c[nH]c2ccc(Br)cc12)=N/O)/C(Cc1c[nH]c2ccc(Br)cc12)=N/O"
**Result** active

**Query** What is the recorded call for this compound in the test? "O=C(NCCSSCCNC(=O)/C(Cc1cn(Cc2ccc(Br)cc2)c2ccc(Br)cc12)=N/O)/C(Cc1cn(Cc2ccc(Br)cc2)c2ccc(Br)cc12)=N/O"
**Result** active

**Query** Test call for this compound, please: "O=C(NCCSSCCNC(=O)/C(Cc1c[nH]c2ccc(F)cc12)=N/O)/C(Cc1c[nH]c2ccc(F)cc12)=N/O"
**Result** inactive

**Query** Assay result, entry "O=C(NCCSSCCNC(=O)/C(Cc1c[nH]c2cccc(Br)c12)=N/O)/C(Cc1c[nH]c2cccc(Br)c12)=N/O" — outcome?
**Result** active

**Query** Dear colleague, could you share the recorded outcome for "Cn1cc(C/C(=N\O)C(=O)NCCSSCCNC(=O)/C(Cc2cn(C)c3ccc(Br)cc23)=N/O)c2cc(Br)ccc21" when you have a moment?
**Result** active

**Query** Lab log entry: "O=C(NCCSSCCNC(=O)/C(Cc1c[nH]c2ccc(Br)cc12)=N/O)/C(Cc1c[nH]c2ccc(Br)cc12)=N/O" — outcome as called in the assay?
**Result** active

**Query** How was "O=C(NCCSSCCNC(=O)/C(Cc1c[nH]c2ccc(OCc3ccccc3)cc12)=N/O)/C(Cc1c[nH]c2ccc(OCc3ccccc3)cc12)=N/O" classified in this test?
**Result** active

**Query** Entry "O=C(NCCSSCCNC(=O)/C(Cc1c[nH]c2cc(Br)ccc12)=N/O)/C(Cc1c[nH]c2cc(Br)ccc12)=N/O" : call = ?
**Result** active

**Query** Which outcome was entered for the compound "O=C(NCCSSCCNC(=O)/C(Cc1ccc(O)c(Br)c1)=N/O)/C(Cc1ccc(O)c(Br)c1)=N/O" in this test?
**Result** active

**Query** Dear colleague, could you share the recorded outcome for "O=C(NCCCSSCCCNC(=O)/C(Cc1c[nH]c2ccc(Br)cc12)=N/O)/C(Cc1c[nH]c2ccc(Br)cc12)=N/O" when you have a moment?
**Result** active

**Query** Could you kindly confirm the outcome this assay logged for "O=C(NCCSSCCNC(=O)/C(Cc1c[nH]c2ccc(Br)cc12)=N/OCc1ccccc1)/C(Cc1c[nH]c2ccc(Br)cc12)=N/OCc1ccccc1" ?
**Result** active

**Query** Name the outcome recorded for "O=C(NCCCCSSCCCCNC(=O)/C(Cc1c[nH]c2ccc(Br)cc12)=N/O)/C(Cc1c[nH]c2ccc(Br)cc12)=N/O" in the assay.
**Result** active

**Query** Lab log entry: "COc1ccc2[nH]cc(C/C(=N\O)C(=O)NCCSSCCNC(=O)/C(Cc3c[nH]c4ccc(OC)cc34)=N/O)c2c1" — outcome as called in the assay?
**Result** active
